System Tested: PIK3CD (Human) (UniProt O00329)
Sequence (O00329 whole entry, looked up): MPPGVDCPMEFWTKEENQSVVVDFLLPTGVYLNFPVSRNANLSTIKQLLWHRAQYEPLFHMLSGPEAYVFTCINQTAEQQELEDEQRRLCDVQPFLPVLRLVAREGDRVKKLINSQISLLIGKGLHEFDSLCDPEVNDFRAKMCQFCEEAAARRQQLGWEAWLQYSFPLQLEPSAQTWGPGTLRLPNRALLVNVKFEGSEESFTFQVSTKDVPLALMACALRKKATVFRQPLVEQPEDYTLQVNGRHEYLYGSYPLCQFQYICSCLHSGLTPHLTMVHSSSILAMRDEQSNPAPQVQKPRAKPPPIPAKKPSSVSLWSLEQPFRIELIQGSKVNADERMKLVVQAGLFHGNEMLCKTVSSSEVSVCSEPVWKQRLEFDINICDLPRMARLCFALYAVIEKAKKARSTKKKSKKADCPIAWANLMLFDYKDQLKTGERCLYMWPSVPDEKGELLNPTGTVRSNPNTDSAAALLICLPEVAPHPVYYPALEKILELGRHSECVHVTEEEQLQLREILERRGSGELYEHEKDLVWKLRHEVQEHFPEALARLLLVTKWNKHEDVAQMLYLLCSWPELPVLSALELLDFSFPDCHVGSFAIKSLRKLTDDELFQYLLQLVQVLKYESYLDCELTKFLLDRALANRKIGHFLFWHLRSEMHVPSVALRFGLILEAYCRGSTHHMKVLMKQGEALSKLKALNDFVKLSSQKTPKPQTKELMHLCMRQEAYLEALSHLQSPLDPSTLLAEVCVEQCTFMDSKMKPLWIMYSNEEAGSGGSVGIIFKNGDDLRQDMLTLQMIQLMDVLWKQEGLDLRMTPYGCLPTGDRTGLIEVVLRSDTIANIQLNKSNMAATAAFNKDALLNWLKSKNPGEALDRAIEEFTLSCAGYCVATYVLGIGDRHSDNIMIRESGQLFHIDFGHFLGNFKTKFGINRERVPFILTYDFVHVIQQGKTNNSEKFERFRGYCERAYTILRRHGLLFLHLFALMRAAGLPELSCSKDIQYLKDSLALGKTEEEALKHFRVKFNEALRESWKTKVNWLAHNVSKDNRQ
Assay Remarks: Cell-Based Assay
Measurement Parameters: b cells
Measurement Type: IC50 (nM)

* C[C@H](Nc1ncnc2[nH]cnc12)c1nc2ccc(F)cc2nc1-c1ccccn1 | 18
* COc1ccccc1-c1nc2c(C)cccc2cc1COc1ncnc2[nH]cnc12 | 88
* C[C@H](Nc1ncnc2[nH]cnc12)c1cc2cccc(Cl)c2nc1-c1ccccc1F | 3.6
* C[C@H](Nc1ncnc2[nH]cnc12)c1cc2cccc(F)c2nc1-c1ccccn1 | 14

1 = C[C@H](Nc1ncnc2[nH]cnc12)c1cc2cccc(Cl)c2nc1-c1ccccn1
2 = COc1ccccc1-c1nc2c(C)cccc2cc1CSc1ncnc2[nH]cnc12
3 = C[C@H](Nc1ncnc2[nH]cnc12)c1nc2cccc(Cl)c2nc1-c1ccccn1
Exercise: Ascending sort, IC50. The reply should contain the labels ordered as requested.
Key: 1, 3, 2

----------
System Tested: PIK3CG (human)
Assay Remarks: Enzyme Assay
Measurement Type: IC50 (µM)

• C[C@H](Nc1ncnc2[nH]cnc12)c1cc2ccc(F)cc2nc1-c1ccccc1S(C)(=O)=O = 0.34

1 = C[C@H](Nc1ncnc2[nH]cnc12)c1cc2cccc(Cl)c2nc1-c1ccccc1Cl
2 = Cc1ccccc1-c1nc2c(C)cccc2cc1CNc1ncnc2[nH]cnc12
3 = Cc1ccccc1-c1nc2c(C)cccc2cc1COc1ncnc2[nH]ccc12
4 = C[C@H](Nc1ncnc2[nH]cnc12)c1cc2cccc(C#N)c2nc1-c1ccccn1
Exercise: Descending sort on IC50 required. The reply should contain the labels ordered as requested.
Key: 4, 3, 2, 1

----------
System Tested: PIK3CA (human) (UniProt P42336)
Sequence (P42336 whole entry, looked up): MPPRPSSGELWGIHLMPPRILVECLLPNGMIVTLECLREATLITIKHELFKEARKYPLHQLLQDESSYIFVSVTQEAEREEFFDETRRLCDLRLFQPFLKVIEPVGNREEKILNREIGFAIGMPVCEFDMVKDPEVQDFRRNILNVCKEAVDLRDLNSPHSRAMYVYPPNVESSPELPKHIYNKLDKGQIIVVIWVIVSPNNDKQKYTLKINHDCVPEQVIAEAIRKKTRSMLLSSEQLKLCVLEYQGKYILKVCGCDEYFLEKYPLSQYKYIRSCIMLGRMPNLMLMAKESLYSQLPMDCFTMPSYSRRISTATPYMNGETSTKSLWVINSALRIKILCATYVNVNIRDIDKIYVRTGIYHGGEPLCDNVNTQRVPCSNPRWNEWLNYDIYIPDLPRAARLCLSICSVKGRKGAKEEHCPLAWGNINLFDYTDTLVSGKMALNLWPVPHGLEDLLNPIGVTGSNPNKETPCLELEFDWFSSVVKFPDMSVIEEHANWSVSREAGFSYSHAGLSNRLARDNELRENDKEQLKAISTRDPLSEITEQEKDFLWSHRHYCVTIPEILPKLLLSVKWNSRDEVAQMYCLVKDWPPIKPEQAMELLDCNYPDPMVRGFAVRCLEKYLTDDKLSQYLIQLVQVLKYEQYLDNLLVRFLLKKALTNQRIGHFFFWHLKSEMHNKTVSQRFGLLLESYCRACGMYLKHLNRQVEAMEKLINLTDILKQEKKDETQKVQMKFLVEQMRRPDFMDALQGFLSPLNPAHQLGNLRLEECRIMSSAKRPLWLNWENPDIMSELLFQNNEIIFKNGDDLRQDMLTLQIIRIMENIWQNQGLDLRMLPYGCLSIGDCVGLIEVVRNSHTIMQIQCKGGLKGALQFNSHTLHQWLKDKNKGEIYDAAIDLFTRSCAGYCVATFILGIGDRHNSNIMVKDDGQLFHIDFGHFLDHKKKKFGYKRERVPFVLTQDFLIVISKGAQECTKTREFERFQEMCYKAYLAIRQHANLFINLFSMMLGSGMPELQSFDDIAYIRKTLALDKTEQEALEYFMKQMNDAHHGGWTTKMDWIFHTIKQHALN
pIC50: −log10 of the molar value.
Measurement Type: pIC50

Solved cases (4 shown):
* C[C@H](Nc1ncnc2[nH]cnc12)c1nc2cccc(Cl)c2nc1-c1ccccn1 | 4.34
* C[C@H](Nc1ncnc2[nH]cnc12)c1cc2c(F)cc(F)cc2nc1-c1ccccn1 | 5.16
* C[C@H](Nc1ncnc2[nH]cnc12)c1nc2c(Cl)cccc2nc1-c1ccccn1 | 3.90
* Cc1ccccc1-n1c(CNc2nc(N)nc3[nH]cnc23)nc2cccc(C)c2c1=O | 5.00

1 = Clc1ccccc1-c1nc2c(Cl)cccc2cc1CNc1ncnc2[nH]cnc12
2 = C[C@H](Nc1ncnc2[nH]cnc12)c1cc2cccc(F)c2nc1-c1ccccn1
3 = C[C@H](Nc1ncnc2[nH]cnc12)c1cc2cccc(Cl)c2nc1-c1ccccc1F
4 = C[C@H](Nc1ncnc2[nH]cnc12)c1nc2cccc(Cl)c2nc1-c1cccc(F)c1
Exercise: Descending sort on pIC50 required. The reply should contain the labels ordered as requested.
Key: 4, 3, 1, 2
(4: 5.09, 3: 4.59, 1: 4.34, 2: 3.90)

1 = Fc1cccc(-c2nc3c(Cl)cccc3cc2CNc2ncnc3[nH]cnc23)c1
2 = C[C@H](Nc1ncnc2[nH]cnc12)c1cc2cccc(F)c2nc1-c1cc(F)ccc1F
3 = C[C@H](Nc1ncnc2[nH]cnc12)c1nc2ccc(F)cc2nc1-c1ccccn1
Exercise: Descending sort on pIC50 required. The reply should contain the labels ordered as requested.
Key: 3, 1, 2

A = C[C@H](Nc1ncnc2[nH]cnc12)c1cc2cccc(Cl)c2nc1-c1ccccc1Cl
B = C[C@H](Nc1ncnc2[nH]cnc12)c1cc2cccc(Cl)c2nc1-c1ccccn1
Exercise: Kindly identify the item with the lower pIC50 figure among these two: A and B Your answer should be the label attached to the chosen record.
Key: A

----------
System Tested: PIK3CD (Human)
Assay Remarks: Enzyme Assay
Measurement Type: IC50 (nM)

Solved cases (5 shown):
• Cc1nnc2ccc(Cl)cc2c1N1CC(C)(C)c2ccc(N3CCOCC3)cc21 = 19000
• COc1ccccc1-c1nc2c(C)cccc2cc1CSc1ncnc2[nH]cnc12 = 240
• C[C@H](Nc1ncnc2[nH]cnc12)c1nc2cccc(Cl)c2nc1-c1ccccn1 = 5.2
• C[C@H](Nc1ncnc2[nH]cnc12)c1cc2cccc(F)c2nc1-c1cccc(F)c1 = 10
• C[C@H](Nc1ncnc2[nH]cnc12)c1cc2cccc(Cl)c2nc1-c1cccc(S(C)(=O)=O)c1 = 15

P = C[C@H](Nc1ncnc2[nH]cnc12)c1cc2cccc(Cl)c2nc1-c1ccccn1
Q = C[C@H](Nc1ncnc2[nH]cnc12)c1cc2ccc(F)cc2nc1-c1cccc(F)c1
Exercise: Hi, I'm comparing P with Q and wondering which one has the bigger number for IC50. Any idea? Your answer should be the label attached to the chosen record.
Key: P
(P: 66 nM, Q: 6.6 nM)

I = C[C@H](Nc1ncnc2[nH]cnc12)c1cc2cccc(F)c2nc1-c1cc(F)ccc1F
II = C[C@H](Nc1ncnc2[nH]cnc12)c1nc2cccc(Cl)c2nc1-c1cccc(F)c1
Exercise: Kindly identify the item with the lower IC50 figure among these two: I and II Your answer should be the label attached to the chosen record.
Key: II
(II: 10 nM, I: 18 nM)

----------
System Tested: PIK3CG (human) (UniProt P48736)
Sequence (P48736 whole entry, looked up): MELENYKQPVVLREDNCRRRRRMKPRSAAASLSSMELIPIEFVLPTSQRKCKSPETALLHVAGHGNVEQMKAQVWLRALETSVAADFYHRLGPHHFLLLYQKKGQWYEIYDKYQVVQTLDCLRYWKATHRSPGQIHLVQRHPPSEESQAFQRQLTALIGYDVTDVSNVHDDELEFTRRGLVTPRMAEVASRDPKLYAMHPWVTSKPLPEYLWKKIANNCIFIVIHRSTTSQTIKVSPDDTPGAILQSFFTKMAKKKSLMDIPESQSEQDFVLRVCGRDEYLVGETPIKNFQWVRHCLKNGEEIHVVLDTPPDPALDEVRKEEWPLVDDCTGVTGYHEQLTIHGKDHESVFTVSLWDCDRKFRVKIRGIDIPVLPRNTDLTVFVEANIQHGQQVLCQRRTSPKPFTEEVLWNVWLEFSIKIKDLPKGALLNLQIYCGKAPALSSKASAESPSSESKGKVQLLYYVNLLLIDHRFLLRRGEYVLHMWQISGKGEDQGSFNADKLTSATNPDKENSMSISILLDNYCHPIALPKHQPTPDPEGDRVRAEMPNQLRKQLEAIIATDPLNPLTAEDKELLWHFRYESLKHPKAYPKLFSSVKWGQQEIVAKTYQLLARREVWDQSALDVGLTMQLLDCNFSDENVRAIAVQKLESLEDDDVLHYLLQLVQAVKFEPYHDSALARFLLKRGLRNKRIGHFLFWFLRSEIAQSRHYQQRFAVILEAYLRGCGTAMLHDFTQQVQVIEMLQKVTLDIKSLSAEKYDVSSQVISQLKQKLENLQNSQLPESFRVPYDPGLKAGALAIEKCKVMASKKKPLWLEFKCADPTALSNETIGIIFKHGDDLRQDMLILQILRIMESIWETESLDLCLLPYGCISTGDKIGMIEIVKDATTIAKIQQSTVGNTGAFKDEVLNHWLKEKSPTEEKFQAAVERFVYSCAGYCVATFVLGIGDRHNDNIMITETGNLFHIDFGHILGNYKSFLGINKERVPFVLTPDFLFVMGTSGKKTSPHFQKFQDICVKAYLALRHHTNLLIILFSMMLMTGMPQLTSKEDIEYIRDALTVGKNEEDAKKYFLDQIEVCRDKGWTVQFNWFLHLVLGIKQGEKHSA
Assay Remarks: Enzyme Assay
Measurement Type: IC50 (nM)

Solved cases (5 shown):
- C[C@H](Nc1ncnc2[nH]cnc12)c1nc2cccc(Cl)c2nc1-c1cccc(F)c1: 160
- C[C@H](Nc1ncnc2[nH]cnc12)c1nc2cccc(Cl)c2nc1-c1ccccn1: 440
- Clc1ccccc1-c1nc2c(Cl)cccc2cc1CNc1ncnc2[nH]cnc12: 450
- C[C@H](Nc1ncnc2[nH]cnc12)c1nc2ccc(F)cc2nc1-c1ccccn1: 890
- Cc1ccccc1-c1nc2c(C)cccc2cc1[C@H](C)Oc1ncnc2[nH]ccc12: 93

a = C[C@H](Nc1ncnc2[nH]cnc12)c1cc2cccc(Cl)c2nc1-c1cccc(F)c1
b = Cc1ncccc1-c1nc2c(Cl)cccc2cc1[C@H](C)Nc1ncnc2[nH]cnc12
c = C[C@H](Nc1ncnc2[nH]cnc12)c1cc2cccc(Cl)c2nc1-c1ccccc1F
Exercise: Ascending sort, IC50. The reply should contain the labels ordered as requested.
Key: a, c, b
(a: 38 nM, c: 67 nM, b: 120 nM)

----------
System Tested: PIK3CB (Human) (UniProt P42338)
Sequence (P42338 whole entry, looked up): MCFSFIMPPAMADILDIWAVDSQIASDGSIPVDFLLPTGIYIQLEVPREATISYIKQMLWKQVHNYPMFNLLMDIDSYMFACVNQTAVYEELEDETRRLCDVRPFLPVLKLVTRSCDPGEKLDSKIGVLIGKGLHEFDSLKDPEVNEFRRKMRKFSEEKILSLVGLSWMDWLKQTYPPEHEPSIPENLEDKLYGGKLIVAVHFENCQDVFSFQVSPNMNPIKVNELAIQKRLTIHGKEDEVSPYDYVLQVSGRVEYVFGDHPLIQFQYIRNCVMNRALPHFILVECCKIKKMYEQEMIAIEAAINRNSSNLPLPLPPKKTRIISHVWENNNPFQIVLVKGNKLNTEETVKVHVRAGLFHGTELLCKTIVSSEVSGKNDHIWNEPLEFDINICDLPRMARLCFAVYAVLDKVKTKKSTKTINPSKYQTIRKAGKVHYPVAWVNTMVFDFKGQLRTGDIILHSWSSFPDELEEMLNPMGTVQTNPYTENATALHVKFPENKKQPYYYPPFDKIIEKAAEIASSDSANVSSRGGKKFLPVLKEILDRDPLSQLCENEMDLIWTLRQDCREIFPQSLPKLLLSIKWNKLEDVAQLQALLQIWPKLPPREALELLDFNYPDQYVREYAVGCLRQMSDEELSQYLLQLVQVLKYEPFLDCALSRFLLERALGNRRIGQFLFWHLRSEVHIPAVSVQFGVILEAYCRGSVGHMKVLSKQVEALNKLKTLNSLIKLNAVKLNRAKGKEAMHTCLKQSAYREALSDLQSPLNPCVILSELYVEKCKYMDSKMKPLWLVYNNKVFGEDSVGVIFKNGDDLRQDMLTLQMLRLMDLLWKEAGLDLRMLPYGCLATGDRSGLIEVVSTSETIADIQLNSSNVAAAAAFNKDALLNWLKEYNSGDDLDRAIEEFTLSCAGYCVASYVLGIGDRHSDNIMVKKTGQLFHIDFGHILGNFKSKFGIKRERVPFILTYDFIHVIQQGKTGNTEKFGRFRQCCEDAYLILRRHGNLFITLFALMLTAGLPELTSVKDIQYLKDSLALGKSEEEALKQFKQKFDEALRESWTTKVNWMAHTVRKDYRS
pIC50: −log10 of the molar value.
Measurement Type: pIC50

Solved cases (3 shown):
* C[C@H](Nc1ncnc2[nH]cnc12)c1nc2cccc(Cl)c2nc1-c1cccc(F)c1 | 5.85
* C[C@H](Nc1ncnc2[nH]cnc12)c1cc2cccc(Cl)c2nc1-c1ccccc1F | 6.38
* C[C@H](Nc1ncnc2[nH]cnc12)c1cc2ccc(F)cc2nc1-c1ccccc1S(C)(=O)=O | 5.68

P = C[C@H](Nc1ncnc2[nH]cnc12)c1cc2cccc(F)c2nc1-c1cc(F)cc(F)c1
Q = Cc1ccccc1-n1c(CNc2nc(N)nc3[nH]cnc23)nc2cccc(C)c2c1=O
Exercise: Hi, I'm comparing P with Q and wondering which one has the bigger number for pIC50. Any idea? Your answer should be the label attached to the chosen record.
Key: Q

----------
System Tested: PIK3CD (Human) (UniProt O00329)
Assay Remarks: Cell-Based Assay
Measurement Parameters: b cells
pIC50: −log10 of the molar value.
Measurement Type: pIC50

Solved cases (8 shown):
• Cc1ncccc1-c1nc2c(Cl)cccc2cc1[C@H](C)Nc1ncnc2[nH]cnc12 = 8.37
• Clc1ccccc1-c1nc2c(Cl)cccc2cc1CNc1ncnc2[nH]cnc12 = 7.60
• C[C@H](Nc1ncnc2[nH]cnc12)c1cc2ccc(F)cc2nc1-c1ccccc1S(C)(=O)=O = 8.17
• C[C@H](Nc1ncnc2[nH]cnc12)c1nc2c(Cl)cccc2nc1-c1ccccn1 = 7.68
• C[C@H](Nc1ncnc2[nH]cnc12)c1cc2cccc(Cl)c2nc1-c1cccc(S(C)(=O)=O)c1 = 7.25
• Fc1cccc(-c2nc3c(Cl)cccc3cc2CNc2ncnc3[nH]cnc23)c1 = 7.55
• C[C@H](Nc1ncnc2[nH]cnc12)c1cc2cccc(C#N)c2nc1-c1ccccn1 = 7.33
• C[C@H](Nc1ncnc2[nH]cnc12)c1cc2cccc(Cl)c2nc1-c1ccccc1Cl = 8.44

a = C[C@H](Nc1ncnc2[nH]cnc12)c1cc2cccc(Cl)c2nc1-c1cccc(F)c1
b = C[C@H](Nc1ncnc2[nH]cnc12)c1cc2cccc(F)c2nc1-c1cccnc1
c = Cc1ccccc1-c1nc2c(C)cccc2cc1CNc1ncnc2[nH]cnc12
Exercise: Ascending sort, pIC50. The reply should contain the labels ordered as requested.
Key: c, b, a

----------
System Tested: UniProt P48736
Assay Remarks: Enzyme Assay
Measurement Type: IC50 (nM)

* C[C@H](Nc1ncnc2[nH]cnc12)c1cc2cccc(F)c2nc1-c1cccc(F)c1 | 250
* Cc1ccccc1-c1nc2c(C)cccc2cc1COc1ncnc2[nH]cnc12 | 580
* COc1ccccc1-c1nc2c(C)cccc2cc1COc1ncnc2[nH]cnc12 | 2600
* C[C@H](Nc1ncnc2[nH]cnc12)c1nc2c(Cl)cccc2nc1-c1ccccn1 | 6600

I = Cc1ccccc1-n1c(CNc2nc(N)nc3[nH]cnc23)nc2cccc(C)c2c1=O
II = C[C@H](Nc1ncnc2[nH]cnc12)c1cc2cccc(F)c2nc1-c1cccnc1
Exercise: Kindly identify the item with the lower IC50 figure among these two: I and II Your answer should be the label attached to the chosen record.
Key: I

a = Cc1ccccc1-c1nc2c(C)cccc2cc1[C@@H](C)Oc1ncnc2[nH]ccc12
b = C[C@H](Nc1ncnc2[nH]cnc12)c1cc2cccc(F)c2nc1-c1ccccn1
Exercise: Hi, I'm comparing a with b and wondering which one has the bigger number for IC50. Any idea? Your answer should be the label attached to the chosen record.
Key: a
(a: 22000 nM, b: 1700 nM)

a = C[C@H](Nc1ncnc2[nH]cnc12)c1cc2cccc(Cl)c2nc1-c1cccc(S(C)(=O)=O)c1
b = Cc1ccccc1-c1nc2c(C)cccc2cc1CCc1ncnc2[nH]cnc12
Exercise: Hi, I'm comparing a with b and wondering which one has the bigger number for IC50. Any idea? Your answer should be the label attached to the chosen record.
Key: b
